Cited source for all entries: PubChem BioAssay (NCI)

- Tested on: MDA-MB-231 breast
- assay_text: NCI tumour cell line growth inhibition, 48 h
Where a SMILES comes first, the peptide text is derived from it. [ ]: non-standard residue; d: D form. Phe(4-NO2) = N[CH](Cc1ccc([N+](=O)[O-])cc1)C(=O)O
property_measured: TGI

# input Return reported TGI. Input molecule: O=C(O)c1cc2c(cc1CC(Cc1ccc3c(c1)CCCC3)C(=O)O)CCCC2 (configuration not stated)
# output > 100 µM

# input Check the records and state TGI for N#Cc1cc([N+](=O)[O-])ccc1NC(=O)/C(=N\NC(=O)c1ccncc1)C(c1cnc2ccc([N+](=O)[O-])cc2n1)[N+](=O)[O-] (configuration not stated)
# output 5.36 µM

# input State, in one line, measured TGI of O=C(NC(=O)c1ccccc1[N+](=O)[O-])Nc1ccc(Oc2ncc(Cl)cn2)c([N+](=O)[O-])c1
# output 63.1 µM

# input Find the measured TGI of Clc1ccc(Nc2ccnc(N3CCN(c4ccnc5cc(Cl)ccc45)CC3)n2)cc1 and report it.
# output 7.22 µM

# input Provide one value: measured TGI of COC(=O)C1=COC(C)C2CN3CCc4c([nH]c5cc(OC)c(OC)cc45)C3CC12 (configuration not stated)
# output > 100 µM

# input Look up TGI of CN(C)CCCNC(=O)CCNC(=O)c1cc(NC(=O)c2cc(NC(=O)c3cc(NC(=O)c4nccn4C)cn3C)cn2C)cn1C and report it.
# output > 100 µM

# input Tell me its TGI given CC(NC(=O)C(Cc1ccc([N+](=O)[O-])cc1)NC(=O)C(N)CCCCN)C(=O)NC(Cc1ccc([N+](=O)[O-])cc1)C(N)=O (configuration not stated) (H-K[Phe(4-NO2)]A[Phe(4-NO2)]-NH2; configuration not given here) as the entry.
# output > 69.9 µM

---

- System: SNB-19 CNS
- assay_text: NCI tumour cell line growth inhibition, 48 h
So I've got a bunch of molecules here, and I need their GI50 values.

# input State its GI50: CCNC(=O)Nc1ccc(Oc2ccnc3ccc4c(ccn4C)c23)cc1
# output 40.1 µM

# input Give reported GI50 value for O=c1[nH]c(=O)c2cc3cc(C4CC(O)C(CO)O4)ccc3cc2[nH]1 (configuration not stated)
# output > 100 µM

# input Determine from records and report GI50 for CCCc1cc(=O)n2c(C(=O)Nc3cccc(C(=O)OCC)c3)c(C(=O)Nc3ccc(F)cc3)sc2n1
# output 25.5 µM

# input Give the reported value of GI50 for this record: COc1cc(/C(=C2/O[C@@H]([C@H]3COC(C)(C)O3)[C@H]3OC(C)(C)O[C@@H]23)c2ccc3ccccc3c2)cc(OC)c1OC
# output 2.49 µM

# input Fill in reported GI50 for this entry: O=C(/C(=C/c1ccc([N+](=O)[O-])cc1)SCc1ccc(Cl)cc1)c1ccc(F)cc1
# output 1.87 µM

# input Retrieve GI50 measured for Cn1nc(C(F)(F)F)cc1-c1c[nH]c(OCc2ccc(Cl)cc2)c(-c2ccc(Cl)c(C(F)(F)F)c2)c1=O and print it.
# output 1.63 µM

# input Look up GI50 of N#Cc1c(N2CCOCC2)nc(=S)[nH]c1-c1ccccc1 and report it.
# output 89.9 µM

# input Supply measured GI50 of COc1ccc(Cn2cc3c(c2-c2ccccc2)CCc2cnoc2-3)cc1OC in your reply.
# output 2.79 µM

# input Kindly indicate its recorded GI50. Item: COc1cccc(/C=N/NC(=O)c2ccccc2N2CCCC2)c1O
# output 8.93 µM

# input Answer with the recorded GI50 for the molecule listed here: CCCCCCCCCCCC(=O)N1CCN(C(C)=O)CC1
# output 19.3 µM

# input Assign GI50 to the following record: Cc1ccc2c(c1)c(Sc1ccc(C(=O)NO)cc1)c1n2CN(C)CC1
# output 2.13 µM

# input Please report GI50 for the following molecule: COc1cc2ncnc(Nc3cccc(Cl)c3F)c2cc1OC(=O)N1CCN(C)C[C@H]1C
# output > 44.8 µM

# input Output measured GI50 for this item: CC1=CCCC2C1(C)CCC(C)C2(C)Cc1cc(O)ccc1O (configuration not stated)
# output 11.5 µM

# input # return recorded GI50 for input O=C(Nc1ccc(-n2cc(-c3ccncc3)c(-c3ccc(O)c(Cl)c3)n2)cc1)Nc1ccc(Cl)c(C(F)(F)F)c1
# output 5.06 µM

# input Give GI50 for the following molecule: CCOC(=O)c1cc(C(=O)c2cc(OC)c(OC)c(OC)c2)n2c1ccc1ccccc12
# output 0.636 µM

# input Tell me measured GI50 for CN1CCC2(CC1)NC(=O)c1c(c3ccc(Cl)c(Cl)c3n1C)C2C#N (configuration not stated) please.
# output 12.8 µM

# input For CCOC(=O)Nc1nc2ccc(Br)cc2s1 , write its GI50.
# output > 50 µM
